Test system: Streptococcus sp.
Assay: In vitro antibacterial evaluation: minimum inhibitory concentration (MIC), broth dilution method
Type: cell-based
Conditions: broth dilution, inoculum 5×10^5 CFU/mL, 18 hours at 35° C.
Assay Readout: MIC Streptococcus pneumoniae (ATCC 6301) (µg/mL)
Response body: numeric value in µg/mL, unit text excluded.

As a guide, the following entries are already answered.
{"Compound": "COc1ccc2cc(COCC3OC(OC4C(CO)OC(Oc5ccc(CC6NC(=O)C(C(C)c7ccccc7)NC(=O)CNC(=O)C(CO)NC(=O)C(CC7CNC(=N)N7C7OC(CO)C(O)C(O)C7O)NC(=O)C(CC7CNC(=N)N7)NC6=O)cc5)C(O)C4O)C(O)C(O)C3O)ccc2c1 (centres unmarked)", "Assay Readout": "MIC Streptococcus pneumoniae (ATCC 6301)", "Recorded Measurement": 2}
{"Compound": "CC(c1ccccc1)C1NC(=O)CNC(=O)C(CO)NC(=O)C(C(O)C2CNC(=N)N2C2OC(CO)C(O)C(O)C2O)NC(=O)C(C(O)C2CNC(=N)N2)NC(=O)C(Cc2ccc(OC3OC(CO)C(OC4OC5COC6(CCCCCCCCCCCC6)OC5C(O)C4O)C(O)C3O)cc2)NC1=O (centres unmarked)", "Assay Readout": "MIC Streptococcus pneumoniae (ATCC 6301)", "Recorded Measurement": 0.25}
{"Compound": "CCCCN1CC(C(O)C2NC(=O)C(C(O)C3CNC(=N)N3)NC(=O)C(Cc3ccc(OC4OC(CO)C(OC5OC6COC7(OC6C(O)C5O)C5CC6CC(C5)CC7C6)C(O)C4O)cc3)NC(=O)C(C(C)c3ccccc3)NC(=O)CNC(=O)C(CO)NC2=O)N(C2OC(CO)C(O)C(O)C2O)C1=N (centres unmarked)", "Assay Readout": "MIC Streptococcus pneumoniae (ATCC 6301)", "Recorded Measurement": 0.25}
{"Compound": "COc1cc(C2OCC3OC(OC4C(CO)OC(Oc5ccc(CC6NC(=O)C(C(C)c7ccccc7)NC(=O)CNC(=O)C(CO)NC(=O)C(C(O)C7CNC(=N)N7C7OC(CO)C(O)C(O)C7O)NC(=O)C(C(O)C7CNC(=N)N7)NC6=O)cc5)C(O)C4O)C(O)C(O)C3O2)cc([N+](=O)[O-])c1O (centres unmarked)", "Assay Readout": "MIC Streptococcus pneumoniae (ATCC 6301)", "Recorded Measurement": 8}

Continue with the next compound.
GET /value?item= CC(C)=CCCC(C)=CCCC(C)=CCOc1cccc(C2OCC3OC(OC4C(CO)OC(Oc5ccc(CC6NC(=O)C(C(C)c7ccccc7)NC(=O)CNC(=O)C(CO)NC(=O)C(C(O)C7CNC(=N)N7C7OC(CO)C(O)C(O)C7O)NC(=O)C(C(O)C7CNC(=N)N7)NC6=O)cc5)C(O)C4O)C(O)C(O)C3O2)c1 (centres unmarked) &field=MIC Streptococcus pneumoniae (ATCC 6301) returns 0.12
